- Tested on: 786-0
- Experimental Details: NCI tumour cell line growth inhibition, 48 h
The source made the active and inactive calls. Cut-off read from the data, not from the text of the source: active = GI50 up to about 1.1 µM and inactive = higher.
Reported values of GI50 for individual entries

As a guide, the following entries are already answered.
> print(dat)
                                   molecule          test.result
1  CCn1c(-c2ccc(F)cc2)nc2c1C(=O)c1ccccc1C2=O  > 100 µM (inactive)
2  C=CCNC1=C2C[C@@H](C)C[C@@H](OC)[C@@H](OC(=O)CCCN)[C@H](C)/C=C(\C)[C@@H](OC(N)=O)[C@H](OC)/C=C\C=C(/C)C(=O)NC(=CC1=O)C2=O   17.1 µM (inactive)
3         Cc1cc(=O)oc2c(CN3CCCCC3)c(O)ccc12  > 100 µM (inactive)
4  CCOC(=O)c1ccc(/N=N/N(C)C(=O)C(C)N)cc1 (centres undefined)  > 100 µM (inactive)
5  Cc1cnc(Cl)nc1C(C#N)c1nc2ccccc2s1 (centres undefined)   15.7 µM (inactive)

Param item: `Cc1ccc(C(=O)Nc2ccc(S(=O)(=O)O)c3cc(S(=O)(=O)O)cc(S(=O)(=O)O)c23)cc1NC(=O)c1cccc(N)c1` ; param system: 786-0; output GI50: > 100 µM (inactive)

Param item: `CCOC(=O)c1sc2nc(SC)nc3c2c1NCN3c1ccc(F)c(F)c1` ; param system: 786-0; output GI50: 4.82 µM (inactive)

Param item: `O=C(NCCN1CCCCC1)c1ccc(I)cc1` ; param system: 786-0; output GI50: > 100 µM (inactive)

Param item: `Cc1ccccc1S(=O)(=O)Nn1cnc2ccc(S(=O)(=O)Nc3ccc(Cl)cc3)cc2c1=O` ; param system: 786-0; output GI50: > 100 µM (inactive)

----------
- Test system: BT-549
- Experimental Details: NCI tumour cell line growth inhibition, 48 h
Calls of active or inactive are those of the source. Cut-off read from the data, not from the text of the source: active = GI50 up to about 1.1 µM and inactive = higher.
Bench note: report the call from active, inactive

Molecule	Study Target	Class Assignment
CCn1c(-c2ccc(F)cc2)nc2c1C(=O)c1ccccc1C2=O	BT-549	inactive
Nc1nc(O)c2ncn(C3C=CC(CO)O3)c2n1 (stereo not given)	BT-549	inactive
COc1cc(S(=O)(=O)Nc2ccc(-c3csc(N4C(=O)C(C)SC4c4cccs4)n3)cc2)ccc1Cl (stereo not given)	BT-549	inactive
O=C(Nc1ccccc1)c1cc(S(=O)(=O)N2CCNC2=O)c(S)cc1Cl	BT-549	inactive
Cc1c(/C=N/NC(=S)N2CCCCC2)c(=O)n(-c2ccccc2)n1C	BT-549	inactive
CN1CCN(c2ccncc2S(=O)(=O)N2CCN(C)CC2)CC1	BT-549	inactive
CCCCCCCC(CC(=O)NC(CO)C(=O)NC(CO)CC(C)C)OC(=O)CC(CCCCCCC)OC(=O)CC(CCCCCCC)OC1OC(C)C(O)C(OC2OC(C)C(O)C(O)C2O)C1O (stereo not given)	BT-549	inactive
COc1cccc(-c2cc(=O)c3ccc(C)nc3[nH]2)c1	BT-549	active

Data request: Per the records of this test, what outcome belongs to `O=c1[nH]nc(-c2ccccc2)n1-n1cccc1` ?
Data returned: inactive

Data request: Per the records of this test, what outcome belongs to COC(=O)C1(C(=O)OC)N=C(C)OC1C(C)C (stereo not given) ?
Data returned: inactive
